The following variants are shown together with reported protein stability index values.
B1: KRT34 (parent)
chain: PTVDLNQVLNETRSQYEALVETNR

- Variants of: B1
- experimentSummary: protein stability index of a GFP-peptide fusion (GPS, HEK-293T) (PSI 1-6); higher = more stable;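 further: lentivirally expressed fusions sorted by FACS into six bins by GFP to DsRed ratio, PSI derived from sequencing read proportions per bin multiplied by bin number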
- conditionsUsed: c terminus: a fixed tail appended
valueType: protein stability index

>>> reportedvalue("V3D")
4.76
>>> reportedvalue("R24F")
2.5
>>> reportedvalue("Y16I")
4.23
>>> reportedvalue("D4W")
2.59
>>> reportedvalue("A18S")
3.32
>>> reportedvalue("L5M")
4.24
>>> reportedvalue("A18G")
4.03
>>> reportedvalue("E17D")
4.67
>>> reportedvalue("L5K")
4.8
>>> reportedvalue("L19S")
4.99
>>> reportedvalue("V8I")
3.57
>>> reportedvalue("T2H")
3.38
>>> reportedvalue("S14H")
3.32

FYI, the data here is from the supplement of paper PMC10567573.
